B1: TPR t1 (parent)
chain: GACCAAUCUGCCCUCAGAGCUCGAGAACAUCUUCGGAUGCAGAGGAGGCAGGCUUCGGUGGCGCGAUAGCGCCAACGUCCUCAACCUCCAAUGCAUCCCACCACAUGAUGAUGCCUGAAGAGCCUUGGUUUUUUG

# Variants of: B1
# ASSAY DETAILS: polymerase ribozyme fitness, log enrichment relative to wild type (log ratio); higher = more active; in vitro selection for triplet polymerase activity
Each item that follows carries a reported polymerase ribozyme fitness (log ratio).
QUANTITY: polymerase ribozyme fitness (log ratio)

# MUTATION LABEL, QUANTITY, ASSAY RESULT
measured = [
    ("G19A G71C C124A", "polymerase ribozyme fitness (log ratio)", -2.56),
    ("C13G G61C", "polymerase ribozyme fitness (log ratio)", -2.94),
    ("C11G G44A A121U", "polymerase ribozyme fitness (log ratio)", 1.52),
    ("U33G G52C C56A G61A C79U A91G C123G U131G", "polymerase ribozyme fitness (log ratio)", -7.1),
    ("C34U C102U C124A", "polymerase ribozyme fitness (log ratio)", -0.815),
    ("G36U A103U C114U", "polymerase ribozyme fitness (log ratio)", -5.26),
    ("G19U C56A", "polymerase ribozyme fitness (log ratio)", -3.03),
    ("U7G G10C G45A G47A U59G G77A", "polymerase ribozyme fitness (log ratio)", -1.37),
    ("C4U C72A A100U", "polymerase ribozyme fitness (log ratio)", -1.48),
    ("C11U A43G", "polymerase ribozyme fitness (log ratio)", -2.11),
    ("C40G A43G U54A", "polymerase ribozyme fitness (log ratio)", -4.85),
    ("C40U C70U A84G", "polymerase ribozyme fitness (log ratio)", -2.34),
    ("A6C C12G G52A G63U U106A", "polymerase ribozyme fitness (log ratio)", -2.76),
    ("U78C C124G", "polymerase ribozyme fitness (log ratio)", 1.08),
    ("G45A G52C", "polymerase ribozyme fitness (log ratio)", -1.37),
    ("C12A C64U A90C", "polymerase ribozyme fitness (log ratio)", -2.08),
    ("A50G C64U", "polymerase ribozyme fitness (log ratio)", 0.0869),
    ("C4A C11G", "polymerase ribozyme fitness (log ratio)", -1.18),
    ("C22G G44U G48U G63U A91C A111U", "polymerase ribozyme fitness (log ratio)", -6.95),
    ("C8U C64U C101G G110A", "polymerase ribozyme fitness (log ratio)", -3.18),
    ("G52U U132A", "polymerase ribozyme fitness (log ratio)", -0.57),
    ("C12G G48A G93A", "polymerase ribozyme fitness (log ratio)", -1.44),
    ("C12G G93U U112A", "polymerase ribozyme fitness (log ratio)", 0.281),
    ("G36C C70G G110C U129G", "polymerase ribozyme fitness (log ratio)", -5.33),
    ("U54A G60C G117C", "polymerase ribozyme fitness (log ratio)", -3.99),
    ("C56A C62U C124U", "polymerase ribozyme fitness (log ratio)", 1.48),
    ("U87A G113C", "polymerase ribozyme fitness (log ratio)", -2.81),
    ("A29U U38G C88U", "polymerase ribozyme fitness (log ratio)", -3.31),
    ("C73G C115A", "polymerase ribozyme fitness (log ratio)", -1.04),
    ("A6U C15G G61A", "polymerase ribozyme fitness (log ratio)", -1.82),
    ("C13U G19A A41U G44U G69U", "polymerase ribozyme fitness (log ratio)", -2.81),
    ("G39A C73A G117A A119G", "polymerase ribozyme fitness (log ratio)", 1.02),
    ("G63A G135U", "polymerase ribozyme fitness (log ratio)", -1.49),
    ("C72A C89A C124G", "polymerase ribozyme fitness (log ratio)", 0.634),
    ("C62G U87C A111G", "polymerase ribozyme fitness (log ratio)", -3.32),
    ("A5U G60C C124U", "polymerase ribozyme fitness (log ratio)", -0.742),
    ("C12G C98U U133G", "polymerase ribozyme fitness (log ratio)", -1.82),
    ("A46U C73A C123G G127A", "polymerase ribozyme fitness (log ratio)", -0.933),
    ("A2G C12U A75U A111G G113A", "polymerase ribozyme fitness (log ratio)", -1.23),
    ("A5U C56G C114U", "polymerase ribozyme fitness (log ratio)", -4.21),
    ("A27C U87A A91G", "polymerase ribozyme fitness (log ratio)", -4.73),
    ("G48A G61C C88A C97U C115G A119G U126A", "polymerase ribozyme fitness (log ratio)", -3.38),
    ("C86U G110A", "polymerase ribozyme fitness (log ratio)", -2.37),
    ("C4A C72U U81A G117U G122A U132A", "polymerase ribozyme fitness (log ratio)", -6.42),
    ("G47U C62U U78C G117C", "polymerase ribozyme fitness (log ratio)", -5.23),
    ("C20U G58A C73A G93C G117U", "polymerase ribozyme fitness (log ratio)", -5.31),
    ("A2U A5C", "polymerase ribozyme fitness (log ratio)", -2.09),
    ("A6U C94A U96G", "polymerase ribozyme fitness (log ratio)", -3.1),
    ("C12U G42C C73A G122A", "polymerase ribozyme fitness (log ratio)", -0.687),
    ("A41U G52A G117U", "polymerase ribozyme fitness (log ratio)", -4.85),
    ("A2G C12U G17C U78C C86G", "polymerase ribozyme fitness (log ratio)", -4.66),
    ("C3A C12G A26U U30G G65C A121C U130C", "polymerase ribozyme fitness (log ratio)", -6.48),
    ("C53U C64U G93U", "polymerase ribozyme fitness (log ratio)", -1.53),
    ("C64U C88G", "polymerase ribozyme fitness (log ratio)", -1.13),
    ("A27U A105U", "polymerase ribozyme fitness (log ratio)", -4.58),
    ("A46G G120C G128C", "polymerase ribozyme fitness (log ratio)", -2.6),
    ("G60U C79U G93A C102A", "polymerase ribozyme fitness (log ratio)", -2.44),
    ("G39A C97A G120C", "polymerase ribozyme fitness (log ratio)", -6.66),
    ("C8A A108G", "polymerase ribozyme fitness (log ratio)", -1.84),
    ("C11U G44C", "polymerase ribozyme fitness (log ratio)", -1.47),
    ("U59A G77A", "polymerase ribozyme fitness (log ratio)", -0.182),
    ("G35C G61C C64A C123G", "polymerase ribozyme fitness (log ratio)", -6.08),
    ("C12U U14A", "polymerase ribozyme fitness (log ratio)", -2.23),
    ("G60U G65U A121C", "polymerase ribozyme fitness (log ratio)", -6.44),
    ("C15A G127A", "polymerase ribozyme fitness (log ratio)", -3.63),
    ("G19A A43U C53U C56A", "polymerase ribozyme fitness (log ratio)", -3.04),
    ("C62A A74C", "polymerase ribozyme fitness (log ratio)", -2.68),
    ("C20U A46C G69C C101U", "polymerase ribozyme fitness (log ratio)", -4.11),
    ("U9G G35U C40A G93C C114U", "polymerase ribozyme fitness (log ratio)", -5.91),
    ("U14A A24G A119G", "polymerase ribozyme fitness (log ratio)", -4.72),
    ("C49U G71U", "polymerase ribozyme fitness (log ratio)", -0.77),
    ("G45A G63A C104A", "polymerase ribozyme fitness (log ratio)", -3.61),
    ("C20U A83G C102A", "polymerase ribozyme fitness (log ratio)", -5.64),
    ("C101U G122A", "polymerase ribozyme fitness (log ratio)", -1.06),
    ("A6G C12U A43C U54C C56U A66G C72U C73A", "polymerase ribozyme fitness (log ratio)", -6.56),
    ("A2U C13U C72G C114U", "polymerase ribozyme fitness (log ratio)", -3.41),
    ("C40A G48A C70U", "polymerase ribozyme fitness (log ratio)", -2.07),
    ("C8U C40U G52A C79G", "polymerase ribozyme fitness (log ratio)", -0.696),
    ("G47A A95C", "polymerase ribozyme fitness (log ratio)", -1.79),
    ("C64U G117C", "polymerase ribozyme fitness (log ratio)", -2.58),
    ("A111C U133C", "polymerase ribozyme fitness (log ratio)", 1.26),
    ("C34A G58A", "polymerase ribozyme fitness (log ratio)", -2.81),
    ("C15U C70G U78A C86G G127A", "polymerase ribozyme fitness (log ratio)", -5.32),
    ("A91C A111C", "polymerase ribozyme fitness (log ratio)", -2.03),
    ("C12A G47A C72G G93A", "polymerase ribozyme fitness (log ratio)", -4.15),
]

src = the RNAGym collection of RNA variant scans (doi:10.1073/pnas.2313332121)
